test system: A. baumannii ATCC 17961; format: cell-based; details: ATCC 17961, 16 h
Positions of bridges follow the written chain, without caps; N, C: chain ends. Non-standard residues stand in square brackets, D forms with d. Residues, ends and D or L forms follow the SMILES beside them. *: point of attachment. Octanoyl(7-Me) = CC(C)CCCCCC(=O)*; dOrn = NCCC[C@@H](N)C(=O)O; Orn = NCCC[C@H](N)C(=O)O; Dap = NC[C@H](N)C(=O)O
measure.name: MIC (µg/mL)
Could you give me the number in µg/mL? Just the number is fine.

Identify measured MIC associated with CC[C@H](C)[C@@H]1NC(=O)[C@@H](NC(=O)[C@H](Cc2c[nH]c3ccccc23)NC(=O)[C@@H](CCCN)NC(=O)CNC(=O)[C@H](CCCN)NC(=O)[C@@H](CCCN)NC(=O)[C@@H](Cc2c[nH]c3ccccc23)NC(=O)[C@@H](Cc2ccc(O)cc2)NC(=O)[C@@H](CO)NC(=O)CCCCCC(C)C)CNC(=O)CNC(=O)CNC(=O)[C@H](CC(N)=O)NC1=O [Dap9-Lat (6), Dap9-laterocidamide] ({Octanoyl(7-Me)}-[dS][dY][dW][dOrn][Orn]G[dOrn]W[Dap]INGG; lactam 9-C)
4
